System name: regulator of G-protein signaling 4 (RGS4) (Rattus norvegicus)
Sequence (P49799 52-205): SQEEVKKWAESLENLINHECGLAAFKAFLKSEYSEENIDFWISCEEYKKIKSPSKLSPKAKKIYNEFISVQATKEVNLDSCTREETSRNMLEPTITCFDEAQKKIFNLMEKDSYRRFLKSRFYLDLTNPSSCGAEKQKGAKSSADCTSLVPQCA
Sequence (P63096 2-354 R178M/A326S partner): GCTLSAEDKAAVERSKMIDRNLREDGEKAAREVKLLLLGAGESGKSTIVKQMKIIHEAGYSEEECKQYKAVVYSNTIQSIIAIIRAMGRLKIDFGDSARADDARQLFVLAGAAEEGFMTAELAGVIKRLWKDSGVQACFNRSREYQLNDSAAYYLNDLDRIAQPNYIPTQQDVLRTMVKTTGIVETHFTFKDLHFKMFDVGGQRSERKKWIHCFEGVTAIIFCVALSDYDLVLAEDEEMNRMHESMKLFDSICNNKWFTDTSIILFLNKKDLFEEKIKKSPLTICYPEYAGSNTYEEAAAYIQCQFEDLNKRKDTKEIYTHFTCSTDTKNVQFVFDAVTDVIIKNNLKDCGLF
Assay info: LC-ESI-MS of intact protein
Parameter: IC50

The recorded IC50 for entry CCCCCC(O)C=CC=O (stereo not shown) [4HNE, 4-hydroxy-2-nonenal] equals ~7.5 mM
